Data provenance: patent US12371428B2

Target: Human MET (residues 956-1390) (Homo sapiens (Human), UniProt P08581)
Sequence (P08581 956-1390): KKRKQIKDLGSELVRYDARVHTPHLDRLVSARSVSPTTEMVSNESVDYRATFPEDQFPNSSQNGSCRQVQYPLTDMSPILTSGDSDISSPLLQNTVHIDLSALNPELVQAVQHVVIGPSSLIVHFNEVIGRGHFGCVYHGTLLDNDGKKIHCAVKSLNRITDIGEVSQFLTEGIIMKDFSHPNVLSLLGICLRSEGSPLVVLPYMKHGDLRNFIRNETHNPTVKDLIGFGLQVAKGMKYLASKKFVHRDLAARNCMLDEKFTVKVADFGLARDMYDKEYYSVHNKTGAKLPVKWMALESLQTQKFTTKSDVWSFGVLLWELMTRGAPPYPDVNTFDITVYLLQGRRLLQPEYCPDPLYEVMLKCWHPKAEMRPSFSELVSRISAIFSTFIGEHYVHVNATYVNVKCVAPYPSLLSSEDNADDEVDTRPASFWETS
Experiment: Human Met kinase assay, HTRF KinEase (Example D-2)
Type: biochemical
Details: protocol of Example D-2 (other compounds); read-out: c-Met IC50
pIC50: −log10 of the molar value.
recorded_endpoint: pIC50

COc1cc2nccc(Oc3ccc(NC(=O)c4cn(C)c(C)c(-c5ccc(F)cc5)c4=O)cc3Cl)c2nc1OC > 7.00
COc1cnc2c(Oc3ccc(NC(=O)c4cnc(C)n(-c5ccc(F)cc5)c4=O)cc3F)ccnc2c1 > 7.00
COc1ccc2nccc(Oc3ccc(NC(=O)c4c[nH]c(=O)n(-c5ccc(F)cc5)c4=O)cc3F)c2n1 > 7.00

Request: Request the reported pIC50 associated with COc1cc2nccc(Oc3ccc(NC(=O)c4n[nH]c(C)c(-c5ccc(F)cc5C)c4=O)cc3)c2nc1OC
Response: > 7.00

Request: Request the reported pIC50 associated with Cc1ncc(C(=O)Nc2ccc(Oc3ccnc4cc(Br)cnc34)c(F)c2)c(O)c1-c1ccc(F)cc1
Response: > 7.00

Request: Request the reported pIC50 associated with COc1cc2nccc(Oc3ccc(NC(=O)c4cn(-c5cccnc5)cc(-c5ccc(F)cc5)c4=O)cc3F)c2nc1OC
Response: > 7.00

Request: Request the reported pIC50 associated with CCn1cc(C(=O)Nc2ccc(Oc3ccnc4cc(O)cnc34)c(F)c2)c(=O)c(-c2ccc(F)cc2)c1C
Response: > 7.00
